Where these numbers come from: the RNAGym collection of RNA variant scans (doi:10.1101/gr.219683.116)

B1: mRNA-splicing (parent)
chain: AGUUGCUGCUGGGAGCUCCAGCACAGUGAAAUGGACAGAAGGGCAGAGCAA

Variants of: B1
protocol.text: exon inclusion enrichment index; higher = more inclusion; WT1 exon 5 minigene, HEK293
Please use yes (1) whenever exon inclusion enrichment index is not below 2, and no (0) whenever it is.

* G5C C6U G8C C9U U10C C44G | yes (1)
* G5A C9A | no (0)
* G5A C6U U7A G8U C9A A40G G41U | no (0)
* G5A U7C G8A U10C A37C G38U | no (0)
* G5A C6U U7A G8U C9A A30G A31C | no (0)
* G5U G8U U10A | no (0)
